tested on: Factor VII; assay: in vivo rodent Factor VII silencing model (serum/plasma FVII after i.v. FVII siRNA lipid formulation); parameters: species or system C57BL/6 mice; details: Table 10; dose resulting in a 50% reduction in plasma FVII levels vs control animals; lipid formulation with FVII siRNA, i.v. tail vein, C57Bl/6 mice
measure.name: ED50 (mg/kg)
Numbers only, in mg/kg.

Example entries and their recorded answers appear below.
CCCCC/C=C\C/C=C\CCCCCCCCC(CCCCCCCC/C=C\C/C=C\CCCCC)ON=CCCCN(C)C [Compound 3]: 0.06
CCCCC/C=C\C/C=C\CCCCCCC[C@H]1OC2(CCN(C)CC2)O[C@@H]1CCCCCCC/C=C\C/C=C\CCCCC [Compound 4]: 0.07
CCCCC/C=C\C/C=C\CCCCCCCCC(CCCCCCCC/C=C\C/C=C\CCCCC)SSCCCCN(C)C [Compound 2]: 0.11

In the following, a different compound is considered.
stdin: If you can, please state the reported ED50 value of CCCCCC1CC1CC1CC1CCCCCCCCC(CCCCCCCCC1CC1CC1CC1CCCCC)OC(=O)CCCN(C)C (stereo not shown) [Compound 1] .
stdout: 0.12
